# procedure.details: Conversion rate of substrate compound A by E. coli expressing each engineered protein (HPLC, oxygenase activity)
# Assay type: biochemical
# measurement.parameters: Reaction condition 1: bacteria cultured overnight, substrate compound A and IPTG added to react overnight
reported.metric: Conversion rate (%)
Answer with a number only, understood to be in %.

What value of Conversion rate has been reported for the following molecule? SEQ ID NO: 34 (protein) MHAALSPLSQRFERIAVQPLTGVLGAEITGVDLREPLDDSTWNEILDAFHTYQVIYFPGQAITNEQHIAFSRRFGPVDPVPHLKSIEGYPEVQMIRREANESLRVIGDDWHTDSTFLDAPPAAVVMRAIDVPEHGGDTGFLSMYTAWETLSPTMQATIEGLNVVHSATRVFGSLYQAQNRRFSNTSLKVMDVDAGDRETVHPLVVTHPGSGRKGLYVNQVYCQRIEGMTDAESKPLLQFLYEHATRFDFTCRVRWKKDQVLVWDNLCTMHRAVPDYAGKFRYLTRTTVGGVRPAR
90

Look up Conversion rate for this molecule: SEQ ID NO: 38: RdpA mutant L82H + V187L + F182W + R104G (protein) MHAALSPLSQRFERIAVQPLTGVLGAEITGVDLREPLDDSTWNEILDAFHTYQVIYFPGQAITNEQHIAFSRRFGPVDPVPHLKSIEGYPEVQMIRREANESGGVIGDDWHTDSTFLDAPPAAVVMRAIDVPEHGGDTGFLSMYTAWETLSPTMQATIEGLNVVHSATRVFGSLYQAQNRRWSNTSLKVMDVDAGDRETVHPLVVTHPGSGRKGLYVNQVYCQRIEGMTDAESKPLLQFLYEHATRFDFTCRVRWKKDQVLVWDNLCTMHRAVPDYAGKFRYLTRTTVGGVRPAR
96.9
